Origin of the recorded values: paper PMC8159111

# ASSAY_TEXT: Cytotoxicity (CC50) determination, crystal violet assay
# Type: cell-based
# REPORTED_CONDITIONS: African green monkey, Vero E6 cells, Table 4 prints no unit, Figure 4 prints μM, read-out: CC50 (half-maximal cytotoxic concentration)
# reported CC50 at 72 h; entries follow
State the answer as a number, implicitly in µM.

Below are worked cases with known answers.
COc1ccc(-c2cc(COC(=O)C34CCC(C)(C)CC3C3=CCC5C6(C)CC(O)C(O)C(C)(C)C6CCC5(C)C3(C)CC4)on2)cc1 (stereo not shown) [Compound 16] | 324
CC1(C)CCC2(C(=O)OCc3cn(-c4ccccc4)nn3)CCC3(C)C(=CCC4C5(C)CC(O)C(O)C(C)(C)C5CCC43C)C2C1 (stereo not shown) [Compound 11] | 218
CC1(C)CC[C@]2(C(=O)O)CC[C@]3(C)C(=CC[C@@H]4[C@@]5(C)CC[C@H](O)C(C)(C)[C@@H]5CC[C@]43C)[C@@H]2C1 [Compound 1, Oleanolic acid] | 190

[Q] Given the entry C#CCOC(=O)C12CCC(C)(C)CC1C1=CCC3C4(C)CC(OCC#C)C(OCC#C)C(C)(C)C4CCC3(C)C1(C)CC2 (stereo not shown) [Compound 7] , report its measured CC50 at 72 h.
[A] 97.4

* * *

# Tested on: SARS-CoV-2 "NRC-03-nhCoV" virus
# ASSAY_TEXT: Inhibitory concentration 50 (IC50) determination, reduction of virus-induced cytopathic effect in Vero-E6 cells
# Format: cell-based
# REPORTED_CONDITIONS: Severe acute respiratory syndrome coronavirus 2, Vero C1008, 72 h, against NRC-03-nhCoV in Vero E6, 72 h, CPE reduction, crystal violet; unit not given in Table 4 and Figure 6, Figure 4 and text print μM; read-out: IC50 (half-maximal inhibitory concentration)
Below: a set of entries, each annotated with reported IC50.
Number in µM, nothing else.

C#CCOC(=O)C12CCC(C)(C)CC1C1=CCC3C4(C)CC(O)C(OCC#C)C(C)(C)C4CCC3(C)C1(C)CC2 (stereo not drawn) [Compound 6] | 135
Cc1cccc(-n2cc(COC(=O)C34CCC(C)(C)CC3C3=CCC5C6(C)CCC(O)C(C)(C)C6CCC5(C)C3(C)CC4)nn2)c1 (stereo not drawn) [Compound 10] | 75.3
Cc1cccc(-n2nncc2COC(=O)C23CCC(C)(C)CC2C2=CCC4C5(C)CCC(O)C(C)(C)C5CCC4(C)C2(C)CC3)c1 (stereo not drawn) [Compound 8] | 174
CC1(C)CCC2(C(=O)OCc3cc(-c4ccc(Cl)cc4)no3)CCC3(C)C(=CCC4C5(C)CC(O)C(O)C(C)(C)C5CCC43C)C2C1 (stereo not drawn) [Compound 17] | 4.12
C#CCOC(=O)C12CCC(C)(C)CC1C1=CCC3C4(C)CC(OCC#C)C(OCC#C)C(C)(C)C4CCC3(C)C1(C)CC2 (stereo not drawn) [Compound 7] | 108

[Q] Which IC50 is reported for this compound? COc1ccc(-c2cc(COC(=O)C34CCC(C)(C)CC3C3=CCC5C6(C)CCC(O)C(C)(C)C6CCC5(C)C3(C)CC4)on2)cc1 (stereo not drawn) [Compound 15]
[A] 523
